// data source = PubChem BioAssay (NCI)

Reported TGI values for the following compounds.
Test system: PC-3 prostate
Test: NCI tumour cell line growth inhibition, 48 h

[
  {
    "COMPOUND": "O=C(NNC(=S)NC1CCCCC1)C12CC3CC(CC(C3)C1)C2",
    "TGI": "> 100 µM"
  },
  {
    "COMPOUND": "Nc1nc(NCCCO)cc(=O)[nH]1",
    "TGI": "> 100 µM"
  },
  {
    "COMPOUND": "Nc1ncnc2c1ncn2C1CCC(CP(=O)(O)O)C1 (stereo not given)",
    "TGI": "> 100 µM"
  },
  {
    "COMPOUND": "Cc1ccc2c(=O)cc(-c3ccc4ccccc4c3)[nH]c2n1",
    "TGI": "9.61 µM"
  },
  {
    "COMPOUND": "CC(C)(Cl)C(Br)CCC(Br)(CCl)C(Cl)CBr (stereo not given)",
    "TGI": "> 10 µM"
  },
  {
    "COMPOUND": "Cc1cc2c(-c3nc4ccccn4c3N)c(O)c(O)cc2c(O)c1-c1c(C)cc2c(-c3nc4ccccn4c3N)c(O)c(O)cc2c1O",
    "TGI": "> 25 µM"
  },
  {
    "COMPOUND": "COc1ccc(/C=C2/SC(Nc3nc(-c4nc(NC5=NC(=O)/C(=C\\c6ccc(OC)cc6)S5)sc4C)c(C)s3)=NC2=O)cc1",
    "TGI": "9.95 µM"
  },
  {
    "COMPOUND": "O=C1NN(Cc2ccccc2)C(=O)N2CCC[C@@H]12",
    "TGI": "> 100 µM"
  },
  {
    "COMPOUND": "c1ccc(CNCCN(CCNCc2ccccn2)Cc2ccc3ccccc3c2)nc1",
    "TGI": "6.13 µM"
  },
  {
    "COMPOUND": "COc1ccc(OC)c2c1C=CC(Br)=CC2",
    "TGI": "> 1 µM"
  },
  {
    "COMPOUND": "Cc1ccc(C)n2c1nc1ccccc12",
    "TGI": "> 100 µM"
  },
  {
    "COMPOUND": "CCN(CC)CCCC(C)N/C(=C1\\C(=O)NC(=O)\\C1=C(/NC(C)CCCN(CC)CC)c1cccc(OC)c1)c1cccc(OC)c1 (stereo not given)",
    "TGI": "2.56 µM"
  },
  {
    "COMPOUND": "CCOC(=O)/C=C(/C(=O)OCC)n1ccc(=O)n(Cc2cnnn2COCCOC(C)=O)c1=O",
    "TGI": "34.2 µM"
  },
  {
    "COMPOUND": "C=C1C(=O)O[C@H]2C1C[C@@H](OC(C)=O)/C(C)=C/CC[C@@]1(C)O[C@H]21 (stereo not given in full)",
    "TGI": "31.3 µM"
  },
  {
    "COMPOUND": "[B-][P+](CC[P+]1([B-])[C@@H](C)[C@@H](O)[C@H](O)[C@@H]1C)(c1ccccc1)c1ccccc1OC (stereo not given in full)",
    "TGI": "35.6 µM"
  },
  {
    "COMPOUND": "C=CCc1c(O)c2nsnc2c2nsnc12",
    "TGI": "> 10 µM"
  },
  {
    "COMPOUND": "CC(=O)OCC(=O)OC[C@H](OCc1ccccc1)[C@@H]1[C@H](OC(C)=O)C(=O)N1Cc1ccccc1",
    "TGI": "> 100 µM"
  },
  {
    "COMPOUND": "OC(CN(CCCl)CCCl)C(O)C(O)C(O)CN(CCCl)CCCl (stereo not given)",
    "TGI": "> 100 µM"
  },
  {
    "COMPOUND": "NS(=O)(=O)c1cc(C(=O)O)c(O)c2ccccc12",
    "TGI": "> 100 µM"
  },
  {
    "COMPOUND": "CC(=O)C1=C(O)C=C2Oc3c(C(=O)/C=C/c4cc(Cl)cc(Cl)c4)c(O)c(C)c(O)c3[C@]2(C)C1=O",
    "TGI": "2.04 µM"
  }
]
